Ref: patent US8871679B2

system: Pyricularia oryzae; type: cell-based; conditions: 63 ppm, compound alone; day 7
Record form. Attribute: Observed efficacy. Fill in for each entry.
Numbers only, in %.

Worked cases, answers included:
[[record]]
compound = "CC1(C)C(C=C(Cl)Cl)C1C(=O)OC(C#N)c1cccc(Oc2ccccc2)c1 (stereo not drawn) [alpha-Cypermethrin, alpha-cypermethrin]"
study_system = "Pyricularia oryzae"
reading = 41

[[record]]
compound = "CCOCn1c(-c2ccc(Cl)cc2)c(C#N)c(Br)c1C(F)(F)F [Chlorfenapyr, chlorfenapyr]"
study_system = "Pyricularia oryzae"
reading = 38

[[record]]
compound = "Cc1cc(C(F)(C(F)(F)F)C(F)(F)F)ccc1NC(=O)c1cccc(I)c1C(=O)NC(C)(C)CS(C)(=O)=O [Flubendiamid, flubendiamide]"
study_system = "Pyricularia oryzae"
reading = 15


// next entry
// recorded Observed efficacy for O=S1OCC2C(CO1)C1(Cl)C(Cl)=C(Cl)C2(Cl)C1(Cl)Cl (stereo not shown) [Endosulfan, endosulfan] : 73
